pKi: −log10 of the molar value.
Here's what we have: pKi numbers for human Itk kinase (Homo sapiens).

Check out these entries, answers already filled in.
| Compound | pKi |
| --- | --- |
| Cc1cc(Nc2cc(N3CCC3)nc(Sc3ccc(NC(=O)c4cccc(F)c4F)cc3)n2)n[nH]1 [Compound 33] | 6.00 to 7.00 |
| Cc1cc(Nc2cc(N3CC(OC(C)C)C3)nc(Sc3ccc(NC(=O)c4ccccc4Cl)cc3)n2)n[nH]1 [Compound 38] | ≥ 7.00 |
| CCC(=O)Nc1ccc(Sc2nc(Nc3cc(C)n[nH]3)cc(N3CC(C)(O)C3)n2)cc1 [Compound 71] | 6.00 to 7.00 |
| Cc1cc(Nc2cc(N3CCC3)nc(Sc3ccc(NC(=O)c4c(F)cccc4F)cc3)n2)n[nH]1 [Compound 7] | ≥ 7.00 |
| Cc1cc(Nc2cc(N3CCC3)nc(Sc3ccc4ccccc4c3)n2)n[nH]1 [Compound 25] | 5.70 to 6.00 |
| Cc1cnc(Nc2cc(N3CCC3)nc(Sc3ccc(NC(=O)C4CC4)cc3)n2)s1 [Compound 4] | 6.00 to 7.00 |

Entry Cc1cccc(C(=O)Nc2ccc(Sc3nc(Nc4cc(C)[nH]n4)cc(N4CCC4)n3)cc2)c1 [Compound 29] : pKi on human Itk kinase (Homo sapiens) = 6.00 to 7.00

Entry Cc1cnc(Nc2cc(N3CC(N)C3)nc(Sc3ccc(NC(=O)C4CC4)cc3)n2)s1 [Compound 2] : pKi on human Itk kinase (Homo sapiens) = 6.00 to 7.00

Entry Cc1cc(Nc2cc(N3CCC3)nc(Sc3ccc(NC(=O)c4cnccc4C(F)(F)F)cc3)n2)[nH]n1 [Compound 59] : pKi on human Itk kinase (Homo sapiens) = 6.00 to 7.00

Entry CCOC1CN(c2cc(Nc3cc(C)[nH]n3)nc(Sc3ccc(NC(=O)c4ccccc4Cl)cc3)n2)C1 [Compound 37] : pKi on human Itk kinase (Homo sapiens) = ≥ 7.00

Entry CCC(=O)Nc1ccc(Sc2nc(Nc3cc(C)n[nH]3)cc(N3CC(C)(C#N)C3)n2)cc1 [Compound 79] : pKi on human Itk kinase (Homo sapiens) = 6.00 to 7.00

Entry Cc1cc(Nc2cc(N3CC(OC(C)(C)C)C3)nc(Sc3ccc(NC(=O)c4ccccc4Cl)cc3)n2)[nH]n1 [Compound 66] : pKi on human Itk kinase (Homo sapiens) = 6.00 to 7.00

Entry Cc1cc(Nc2cc(N3CCC3)nc(Sc3ccc(NC(=O)c4ccccc4F)cc3)n2)n[nH]1 [Compound 9] : pKi on human Itk kinase (Homo sapiens) = 6.00 to 7.00

Entry CC1=NN=C(Nc2cc(N3CCC3)nc(Sc3ccc(NC(=O)c4ccccc4)cc3)n2)C1 [Compound 52] : pKi on human Itk kinase (Homo sapiens) = 6.00 to 7.00

Entry Cc1cc(Nc2cc(N3CC(C#N)C3)nc(Sc3ccc(NC(=O)c4ccccc4Cl)cc3)n2)n[nH]1 [Compound 16] : pKi on human Itk kinase (Homo sapiens) = ≥ 7.00

Entry Cc1cc(Nc2cc(N3CCC3)nc(Sc3ccc(NC(=O)c4ccccc4C(F)(F)F)cc3)n2)[nH]n1 [Compound 56] : pKi on human Itk kinase (Homo sapiens) = 6.00 to 7.00
